System: recombinant human XIAP-BIR3 protein (Homo sapiens, UniProt P98170)
Construct: recombinant human XIAP-BIR3 protein; purchased Reaction biology APT-11-374
Sequence (P98170 241-356 limits assumed): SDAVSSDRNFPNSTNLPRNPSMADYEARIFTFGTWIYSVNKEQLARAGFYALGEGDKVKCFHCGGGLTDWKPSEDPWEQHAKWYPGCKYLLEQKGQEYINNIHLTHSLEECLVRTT
Assay Explanation: Recombinant human XIAP-BIR3 biochemical assay (HTRF, peptide displacement)
Settings: 3.7 nM XIAP-BIR3, 7.6 nM AbuRPF-K(5-Fam)-NH2 peptide, read-out: Protein binding IC50 (nM) XIAP
Would you mind telling me the reported IC50 of each entry?
One number for each entry, in nM.

Consider the following illustrative entries.
>>> result("C[C@@H]1CN(CC(=O)N2c3cc(Cc4ccc(F)cc4)c(C(N)=O)nc3OC[C@@H]2C)[C@@H](CN2CCOC[C@H]2C)CN1 [Compound 31]")
5.6
>>> result("CCOC[C@H]1COc2ncc(Cc3ccc(F)cc3)cc2N1C(=O)CN1C[C@@H](C)NC[C@@H]1CN1CCOC[C@H]1C [Compound 37]")
43
>>> result("C[C@@H]1CN(CC(=O)N2c3cc(Cc4ccc(F)cc4)c(O)nc3OC[C@@H]2C)[C@@H](CN2[C@H](C)COC[C@H]2C)CN1 [Example 81]")
2.9
>>> result("C[C@@H]1CN(CC(=O)N2c3cc(Cc4ccc(F)cc4)c(C(=O)N4CC(O)C4)nc3OC[C@@H]2C)[C@@H](CN2[C@H](C)COC[C@H]2C)CN1 [Example 74]")
11
>>> result("C[C@@H]1CN(CC(=O)N2c3cc(Cc4ccc(F)cc4)c(CO)nc3OC[C@@H]2C)[C@@H](CN2C3CCC2COC3)CN1 [Compound 86]")
15

Now for another entry.
Observed IC50 on recombinant human XIAP-BIR3 protein (Homo sapiens, UniProt P98170) for C[C@@H]1CN(CC(=O)N2c3cc(Cc4ccc(F)cc4)c(C(=O)N(C)C)nc3OC[C@@H]2C)[C@@H](CN2[C@H](C)COC[C@H]2C)CN1 [Example 80] , please.
4.9

---

Would you mind telling me the reported log10 of IC50 of each entry?
System: recombinant human XIAP-BIR3 protein (Homo sapiens, UniProt P98170)
Construct: recombinant human XIAP-BIR3 protein; purchased Reaction biology APT-11-374
Assay Explanation: Recombinant human XIAP-BIR3 biochemical assay (HTRF, peptide displacement)
Settings: 3.7 nM XIAP-BIR3, 7.6 nM AbuRPF-K(5-Fam)-NH2 peptide, read-out: Protein binding IC50 (nM) XIAP
Structures can show the parent of a compound that is named as a salt.
The figures below represent log10 of IC50, where IC50 is stated in nM.

Consider the following illustrative entries.
>>> result("CCC(=O)Nc1nc2c(cc1Cc1ccc(F)cc1)N(C(=O)CN1C[C@@H](C)NC[C@@H]1CN1[C@H](C)COC[C@H]1C)[C@@H](C)CO2 [Compound 117]")
0.81
>>> result("C[C@@H]1CN(CC(=O)N2c3cc(Cc4ccc(F)cc4)c(C(=O)NCCO)nc3OC[C@@H]2C)[C@@H](CN2[C@H](C)COC[C@H]2C)CN1 [Example 73]")
0.63

Could you tell me log10 of IC50 for each of these molecules? They are listed below.
1. C[C@@H]1CN(CC(=O)N2c3cc(Cc4ccc(F)cc4)cnc3OC[C@@H]2C)[C@@H](CN2CCOC[C@H]2C)CN1 [Compound 19A]
2. C[C@@H]1CN(CC(=O)N2CCOc3nc(C#N)c(Cc4ccc(F)cc4)cc32)[C@@H](CN2CCOC[C@H]2C)CN1 [Compound 1, formate]
3. C[C@@H]1CN(CC(=O)N2c3cc(Cc4ccc(F)cc4)c(C(=O)NC4CC4)nc3OC[C@@H]2C)[C@@H](CN2[C@H](C)COC[C@H]2C)CN1 [Example 63]
4. C[C@@H]1CN(CC(=O)N2c3cc(Cc4ccc(F)cc4)cnc3OC[C@@H]2C2CC2)[C@@H](CN2[C@H](C)COC[C@H]2C)CN1 [Compound 27]

[0.43, 1.41, 0.51, 1.15]

Observed log10 of IC50 on recombinant human XIAP-BIR3 protein (Homo sapiens, UniProt P98170) for C[C@@H]1CN(CC(=O)N2c3cc(Cc4ccc(F)cc4)cnc3OC[C@H]2C)[C@@H](CN2CCOC[C@H]2C)CN1 [Compound 19B] , please.
1.52
